- target or test system: CYP3A4 (Homo sapiens, UniProt P08684)
- Sequence (P08684 2-503): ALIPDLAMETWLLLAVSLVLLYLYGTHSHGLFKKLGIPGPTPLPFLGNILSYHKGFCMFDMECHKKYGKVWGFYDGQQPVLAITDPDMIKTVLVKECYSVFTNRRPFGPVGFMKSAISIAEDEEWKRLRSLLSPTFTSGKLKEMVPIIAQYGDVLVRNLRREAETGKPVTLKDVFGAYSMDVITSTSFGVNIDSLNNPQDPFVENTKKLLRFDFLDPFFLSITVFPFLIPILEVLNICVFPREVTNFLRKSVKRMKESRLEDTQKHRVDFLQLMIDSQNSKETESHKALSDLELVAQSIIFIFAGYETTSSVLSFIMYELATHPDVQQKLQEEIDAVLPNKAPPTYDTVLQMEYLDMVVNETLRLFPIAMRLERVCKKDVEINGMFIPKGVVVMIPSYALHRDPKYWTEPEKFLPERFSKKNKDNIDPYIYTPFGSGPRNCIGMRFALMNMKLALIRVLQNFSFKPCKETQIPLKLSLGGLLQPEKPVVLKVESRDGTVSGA
- method summary: CYP3A inhibition assay, testosterone 6β-hydroxylase activity in pooled human hepatic microsomal fraction
- Method: Pooled (n≧15 donors) human hepatic microsomal fraction was obtained from BD-Gentest (Woburn, Mass.) who also supplied hydroxy-terfenadine, 4′-hydroxydiclofenac and NADPH regenerating system. […] Incubations were performed in duplicate in 50 mM potassium phosphate buffer, pH 7.4 with NADPH regenerating system used as described by the manufacturer. […] The final substrate concentrations used were equal to the apparent Km values for the activities determined under the same conditions. […]
metric: IC50 (nM)
Kindly provide the numeric value in nM only, without the unit symbol.

Request: // query IC50 value for entry CC(C)CN(C)C(=O)N[C@@H](CCN1CCOCC1)C(=O)N[C@H](CC[C@H](Cc1ccccc1)NC(=O)OCc1cncs1)Cc1ccccc1 [Compound 14]
Response: 320

Request: // query IC50 value for entry CC(C)(C)OC(=O)N[C@@H](CCN1CCOCC1)C(=O)N[C@H](CC[C@H](Cc1ccccc1)NC(=O)OCc1cncs1)Cc1ccccc1 [Compound 54]
Response: 410

Request: // query IC50 value for entry CC(C)[C@H](NC(=O)N1CCN(C)CC1)C(=O)N[C@H](CC[C@H](Cc1ccccc1)NC(=O)OCc1cncs1)Cc1ccccc1 [Compound 28]
Response: 470

Request: // query IC50 value for entry O=C(N[C@H](CC[C@H](Cc1ccccc1)NC(=O)[C@H](CCN1CCOCC1)NC(=O)N1CCCC1)Cc1ccccc1)OCc1cncs1 [Compound 10]
Response: 320

Request: // query IC50 value for entry CN(Cc1cccnc1)C(=O)N[C@@H](CCN1CCOCC1)C(=O)N[C@H](CC[C@H](Cc1ccccc1)NC(=O)OCc1cncs1)Cc1ccccc1 [Compound 59]
Response: 450

Request: // query IC50 value for entry CN(C)C(=O)N[C@@H](CCN1CCOCC1)C(=O)N[C@H](CC[C@H](Cc1ccccc1)NC(=O)OCc1cncs1)Cc1ccccc1 [Compound 16]
Response: 710

Request: // query IC50 value for entry CC(C)N(C)C(=O)N[C@@H](CCN1CCOCC1)C(=O)N[C@H](CC[C@H](Cc1ccccc1)NC(=O)OCc1cncs1)Cc1ccccc1 [Compound 7]
Response: 310

Request: // query IC50 value for entry O=C(N[C@H](CC[C@H](Cc1ccccc1)NC(=O)[C@H](CCN1CCOCC1)NC(=O)N1CCOCC1)Cc1ccccc1)OCc1cncs1 [Compound 12]
Response: 640

Request: // query IC50 value for entry CC(C)[C@H](NC(=O)N(C)C(C)C)C(=O)N[C@H](CC[C@H](Cc1ccccc1)NC(=O)OCc1cncs1)Cc1ccccc1 [Compound 29]
Response: 320

Request: // query IC50 value for entry CC(C)[C@H](NC(=O)N1CCOCC1)C(=O)N[C@H](CC[C@H](Cc1ccccc1)NC(=O)OCc1cncs1)Cc1ccccc1 [Compound 27]
Response: 250

Request: // query IC50 value for entry CN(Cc1ccccc1)C(=O)N[C@@H](CCN1CCOCC1)C(=O)N[C@H](CC[C@H](Cc1ccccc1)NC(=O)OCc1cncs1)Cc1ccccc1 [Compound 17]
Response: 300

Request: // query IC50 value for entry CN1CCN(C(=O)N[C@@H](CCN2CCOCC2)C(=O)N[C@H](CC[C@H](Cc2ccccc2)NC(=O)OCc2cncs2)Cc2ccccc2)CC1 [Compound 15]
Response: 1100

Request: // query IC50 value for entry CC(=O)NCC[C@H](NC(=O)N1CCCCC1)C(=O)N[C@H](CC[C@H](Cc1ccccc1)NC(=O)OCc1cncs1)Cc1ccccc1 [Compound 40]
Response: 220
